# experiment.summary: activity coefficient (dimensionless); of the first substance listed, at infinite dilution; xn = mol fraction of the nth substance listed
# assay.setup: 368.15 K; 100 kPa; Liquid; Chromatography; x1 = 0
We use 5 as the dividing line for activity coefficient: on or above the line is MET, below is NOT MET.

| molecule | category |
| --- | --- |
| CO [methanol] + CCCC[n+]1ccc(C#N)cc1.O=S(=O)([N-]S(=O)(=O)C(F)(F)F)C(F)(F)F | NOT MET |

Incoming: Is reported activity coefficient greater than or equal to 5 here: C1CCOC1 [tetrahydrofuran] + CCCC[n+]1ccc(C#N)cc1.O=S(=O)([N-]S(=O)(=O)C(F)(F)F)C(F)(F)F
Outgoing: NOT MET

Incoming: Then what about the molecule C1CCCCCCC1 [cyclooctane] + CCCC[n+]1ccc(C#N)cc1.O=S(=O)([N-]S(=O)(=O)C(F)(F)F)C(F)(F)F ?
Outgoing: MET

Incoming: Then what about the molecule C1COCCO1 [1,4-dioxane] + CCCC[n+]1ccc(C#N)cc1.O=S(=O)([N-]S(=O)(=O)C(F)(F)F)C(F)(F)F ?
Outgoing: NOT MET

Incoming: Then what about the molecule Cc1ccccc1 [toluene] + CCCC[n+]1ccc(C#N)cc1.O=S(=O)([N-]S(=O)(=O)C(F)(F)F)C(F)(F)F ?
Outgoing: NOT MET

Incoming: Then what about the molecule C#CCCC [1-pentyne] + CCCC[n+]1ccc(C#N)cc1.O=S(=O)([N-]S(=O)(=O)C(F)(F)F)C(F)(F)F ?
Outgoing: NOT MET

Incoming: Then what about the molecule CCCC(=O)OC [methyl butanoate] + CCCC[n+]1ccc(C#N)cc1.O=S(=O)([N-]S(=O)(=O)C(F)(F)F)C(F)(F)F ?
Outgoing: NOT MET

Incoming: Then what about the molecule CC(C)OC(C)C [diisopropyl ether] + CCCC[n+]1ccc(C#N)cc1.O=S(=O)([N-]S(=O)(=O)C(F)(F)F)C(F)(F)F ?
Outgoing: MET

Incoming: Then what about the molecule CCCO [propan-1-ol] + CCCC[n+]1ccc(C#N)cc1.O=S(=O)([N-]S(=O)(=O)C(F)(F)F)C(F)(F)F ?
Outgoing: NOT MET

Incoming: Then what about the molecule CCc1ccccc1 [ethylbenzene] + CCCC[n+]1ccc(C#N)cc1.O=S(=O)([N-]S(=O)(=O)C(F)(F)F)C(F)(F)F ?
Outgoing: NOT MET

----------
# experiment.summary: activity coefficient (dimensionless); of the first substance listed, at infinite dilution; xn = mol fraction of the nth substance listed
# assay.setup: 358.15 K; 100 kPa; Liquid; Chromatography; x1 = 0
Assign labels as follows, please: met for activity coefficient below 3; not met for activity coefficient equal to or exceeding 3.

| compound | category |
| --- | --- |
| CC1CCCCC1 [methylcyclohexane] + CCCC[n+]1ccc(C#N)cc1.O=S(=O)([N-]S(=O)(=O)C(F)(F)F)C(F)(F)F | not met |

Incoming: Lab note: activity coefficient threshold 3. Does this compound come in strictly under it? CC(C)OC(C)C [diisopropyl ether] + CCCC[n+]1ccc(C#N)cc1.O=S(=O)([N-]S(=O)(=O)C(F)(F)F)C(F)(F)F
Outgoing: not met

Incoming: Then what about the compound CCCC(C)=O [pentan-2-one] + CCCC[n+]1ccc(C#N)cc1.O=S(=O)([N-]S(=O)(=O)C(F)(F)F)C(F)(F)F ?
Outgoing: met

Incoming: Then what about the compound CCOCC [diethyl ether] + CCCC[n+]1ccc(C#N)cc1.O=S(=O)([N-]S(=O)(=O)C(F)(F)F)C(F)(F)F ?
Outgoing: not met
